Assay: qHTS for induction of synthetic lethality in tumor cells producing 2HG: qHTS for the HT-1080-NT fibrosarcoma cell line;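 further: NT is the 2HG producing partner of a matched IDH1 knockdown line; nearly all actives have a fitted effect of over 55% in size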
Details: HT-1080-NT fibrosarcoma viability, CellTiter-Glo ATP luminescence, 48 h; series mostly up to 46.1 µM
From the text: Unbiased genomic sequencing for 22 glioma genomes found recurrent mutation of IDH1 on chromosome 2q33, a gene encoding the cytosolic isoform of IDH1 associated with the tricarboxylic acid cycle (TCA) that catalyzes the oxidative decarboxylation of isocitrate, yielding alpha-ketoglutarate and CO2 via NADP+ to NADPH conversion. […] Concentration-response curves were fitted to the signals arising from the resulting luminescence. […]
In all, about 360,000 compounds went through this assay and about 6,000 (1.7%) were called active. About 8% were inconclusive and are not listed. The call rests on the fitted dose curve; in most records, active means well fitted cell-killing curve with a large enough effect; inconclusive means small, poorly fitted or top-dose-only effect, or effect the other way; inactive means flat fitted curve, though single readings scatter. The sample holds actives, similar compounds and a random draw of the others, so the mix is not that of the screen.
Possible outcomes: active, inactive

>  <COMPOUND>
Clc1cccc(Cl)c1OCCOCCNCc1ccccc1

>  <LABEL CLASS>
inactive

$$$$
>  <COMPOUND>
O=C(CSc1nc(Nc2ccccc2)nc(N2CCOCC2)n1)Nc1cc(Cl)ccc1O

>  <LABEL CLASS>
active

$$$$
>  <COMPOUND>
CCN(CC)C(=O)C1=C(C)N(Cc2ccc(OC)cc2)C(=O)C(CC(=O)NCCCCc2ccccc2)C1 (configuration not stated)

>  <LABEL CLASS>
inactive

$$$$
>  <COMPOUND>
O=C(Nc1ccc(Cl)cc1)c1csc([C@H]2C[C@H](O)[C@@H](CO)O2)n1

>  <LABEL CLASS>
inactive

$$$$
>  <COMPOUND>
COc1cccc(CNc2nc(NCc3ccccc3OC)nc3ccsc23)c1

>  <LABEL CLASS>
active

$$$$
>  <COMPOUND>
Clc1ccccc1Nc1nc(NCc2cccs2)nc2ccsc12

>  <LABEL CLASS>
inactive

$$$$
>  <COMPOUND>
Cc1nc2ccccc2nc1CC(O)(c1ccccc1)c1ccccc1

>  <LABEL CLASS>
inactive

$$$$
>  <COMPOUND>
CC1(C(=O)NS(=O)(=O)c2cccs2)CCN1C(=O)Cc1ccc(-c2ccccc2)cc1 (configuration not stated)

>  <LABEL CLASS>
inactive

$$$$
>  <COMPOUND>
CC1(c2ccccc2)NC(=O)N(CC(=O)Nc2cc(Cl)ccc2N2CCOCC2)C1=O (configuration not stated)

>  <LABEL CLASS>
inactive

$$$$
>  <COMPOUND>
COc1ccc2c(c1)c(=Cc1ccc(N(C)C)cc1)c1cc(-c3ccccc3)[n+](C)n12

>  <LABEL CLASS>
active

$$$$
>  <COMPOUND>
CCn1cc(CN2CCC(C(=O)Nc3cccc(-c4cccc(Cl)c4)c3)CC2)cn1

>  <LABEL CLASS>
active

$$$$
>  <COMPOUND>
CS(=O)(=O)Nc1cccc(-c2cn3ccccc3n2)c1

>  <LABEL CLASS>
inactive

$$$$
>  <COMPOUND>
CC(C)(O)C#Cc1ccc(CN2CCC(CO)(CCc3ccccc3)CC2)cc1

>  <LABEL CLASS>
inactive

$$$$
>  <COMPOUND>
CN(C)CCOc1ccc(Cl)cc1C(C)(C)C

>  <LABEL CLASS>
inactive

$$$$
>  <COMPOUND>
C#CCNC(=O)C[C@@H]1C[C@@]2(C(=O)OCC)CCCC=C2N(Cc2ccco2)C1=O

>  <LABEL CLASS>
inactive

$$$$
>  <COMPOUND>
C=CCNc1nc(N)c([N+](=O)[O-])c(NC2CCCCC2)n1

>  <LABEL CLASS>
inactive

$$$$
>  <COMPOUND>
COc1ccc2sc(-c3ccc(N(C)C)cc3)c(-c3ccc4cc[nH]c4c3)c2c1

>  <LABEL CLASS>
inactive

$$$$
>  <COMPOUND>
N#Cc1ccc(-c2ccc3nccn3c2)cc1

>  <LABEL CLASS>
inactive

$$$$
>  <COMPOUND>
COc1ccc(NC(=S)NCc2cccs2)c(OC)c1

>  <LABEL CLASS>
inactive

$$$$
>  <COMPOUND>
COc1ccc(OC)c(C(O)c2ncc(-c3cccc(C(F)(F)F)c3)[nH]2)c1 (configuration not stated)

>  <LABEL CLASS>
inactive

$$$$
>  <COMPOUND>
COc1cc(NC(=O)c2cncc(-c3ccc(C#N)cc3)c2)cc(C(=O)Nc2cccc(C(F)(F)F)c2)c1

>  <LABEL CLASS>
inactive

$$$$
>  <COMPOUND>
COc1cccc(-c2cc3nc(NCc4ccccc4OC)n(C)c(=O)c3s2)c1

>  <LABEL CLASS>
inactive

$$$$

// data source = PubChem BioAssay AID686970
